System: johnsongrass
Experiment: Test C pre-/postemergence herbicide test
Format: in vivo, Sorghum halepense
Conditions: Preemergence, 31 g ai/ha; scale 0 to 100, 0 is no effect and 100 is complete control
Readout name: Johnsongrass plant response rating
The reply should be a number, written without any unit.

Some compounds with recorded Johnsongrass plant response rating:
| Compound | Readout name | Test result |
| --- | --- | --- |
| CN1CC(c2ccc(C(F)(F)F)cc2)C(C(=O)Nc2ccccc2F)C1=O (centres unmarked) [Compound 304] | Johnsongrass plant response rating | 0 |
| O=C1NCC(c2ccc(C(F)(F)F)c(F)c2)C1C(=O)Nc1ccccc1F (racemic) [Compound 246] | Johnsongrass plant response rating | 0 |
| O=C1NCC(c2cccc(OC(F)F)c2)C1C(=O)Nc1ccc(F)c(F)c1F (centres unmarked) [Compound 325] | Johnsongrass plant response rating | 20 |

In: Look up Johnsongrass plant response rating: O=C1NCC(c2cccc(Cl)c2)C1C(=O)Nc1cccc(F)c1F (racemic) [Compound 275]
Out: 10

In: Entry O=C1NCC(c2cccc(C(F)(F)F)c2)C1C(=O)Nc1ccc(F)c(F)c1F (centres unmarked) [Compound 315] : reported Johnsongrass plant response rating = ?
Out: 75

In: Need Johnsongrass plant response rating, item O=C1NCC(c2cccc(C(F)(F)F)c2)C1C(=O)Nc1cccc(F)c1F (centres unmarked) [Compound 241]
Out: 85

In: Find the recorded Johnsongrass plant response rating belonging to O=C1NCC(c2ccc(F)c(C(F)(F)F)c2)C1C(=O)Nc1ccccc1C(F)(F)F (racemic) [Compound 78] and report it.
Out: 0

###

Below: a set of entries, each annotated with reported Plant response rating, Foxtail, Giant.
System: giant foxtail
Test: Test A pre-/postemergence herbicide test
Assay type: in vivo, Setaria faberii
Details: Preemergence, 1000 g ai/ha; visual rating on 0 to 100 scale (0 no effect, 100 complete control), approx. 10 days
Reply with the value as a number alone.

Worked examples follow.
| Compound | Plant response rating, Foxtail, Giant |
| --- | --- |
| O=C1NCC(c2ccc(F)c(F)c2)C1C(=O)Nc1cccc(Cl)c1F (racemic) [Compound 104] | 90 |
| O=C1NCC(c2ccc(Cl)c(Cl)c2)C1C(=O)Nc1cccc(F)c1 (racemic) [Compound 27] | 90 |
| O=C1NCC(c2ccc(F)c(F)c2)C1C(=O)N(O)c1ccccc1 (stereo not shown) [Compound 71] | 60 |

Kindly consider the entry below.
In: Param item = O=C1NCC(c2ccc(F)c(F)c2)C1C(=O)Nc1ccc(F)cc1F (racemic) [Compound 23] ; retrieve measured Plant response rating, Foxtail, Giant.
Out: 90

###

Tested on: soybean
Test: Test C pre-/postemergence herbicide test
Format: in vivo, Glycine max
Details: Postemergence, 31 g ai/ha; scale 0 to 100 (0 no effect, 100 complete control)
# Plant response rating, Soybean values compiled below

| Molecule | Plant response rating, Soybean |
| --- | --- |
| O=C1NCC(c2ccc(F)cc2)C1C(=O)Nc1cccc(F)c1F (racemic) | 5 |
| CN1CC(c2ccc(C(F)(F)F)cc2)C(C(=O)Nc2ccccc2F)C1=O (stereo not drawn) | 0 |

// next entry
In: Which Plant response rating, Soybean is reported for this molecule? O=C1NCC(c2cccc(Br)c2)C1C(=O)Nc1cccc(F)c1F (stereo not drawn)
Out: 0

###

Test system: corn
Experiment: Test A pre-/postemergence herbicide test
Format: in vivo, Zea mays
Details: Postemergence, 500 g ai/ha; 0 to 100 scale (0 no effect, 100 complete control)
Entries and their Plant response rating, Corn

Sample answers from the record:
| Compound | Readout name | Test result |
| --- | --- | --- |
| O=C1NCC(c2ccsc2)C1C(=O)Nc1ccccc1C(F)(F)F (racemic) | Plant response rating, Corn | 0 |
| O=C1NCC(c2cccc(C(F)(F)F)c2)C1C(=O)Nc1cccc(Cl)c1F (stereo not drawn) | Plant response rating, Corn | 80 |
| O=C1NCC(c2cccc(I)c2)C1C(=O)Nc1ccccc1C(F)(F)F (stereo not drawn) | Plant response rating, Corn | 0 |
| O=C1NCC(c2ccc(F)c(F)c2)C1C(=O)Nc1cccc2c1OC(F)(F)O2 (stereo not drawn) | Plant response rating, Corn | 0 |
| O=C1NCC(c2ccc(C(F)(F)F)c(Cl)c2)C1C(=O)Nc1cccc(F)c1F (racemic) | Plant response rating, Corn | 0 |

Turning to the following compound.
In: So what Plant response rating, Corn did CC1NC(=O)C(C(=O)Nc2ccccc2F)C1c1ccc(F)c(F)c1 (mixture of isomers) get with corn?
Out: 0

###

Test system: ryegrass, Italian
Experiment: Test A pre-/postemergence herbicide test
Format: in vivo, Lolium multiflorum
Conditions: Preemergence, 500 g ai/ha; visual rating on 0 to 100 scale (0 no effect, 100 complete control)
Ryegrass, Italian plant response rating values, listed per item
Answer field: number only, no words.

Some compounds with recorded Ryegrass, Italian plant response rating:
| Compound | Assay system | Readout name | Test result |
| --- | --- | --- | --- |
| O=C1NCC(c2cc3ccccc3s2)C1C(=O)Nc1cccc(F)c1F (stereo not drawn) [Compound 296] | ryegrass, Italian | Ryegrass, Italian plant response rating | 0 |
| O=C1NCC(c2cc3ccccc3s2)C1C(=O)Nc1ccccc1C(F)(F)F (stereo not drawn) [Compound 297] | ryegrass, Italian | Ryegrass, Italian plant response rating | 0 |

// next item, Ryegrass, Italian plant response rating requested
In: GET /values?readout=Ryegrass, Italian plant response rating&system=ryegrass, Italian&item= O=C1NCC(c2cccc(OC(F)F)c2)C1C(=O)Nc1ccc(F)c(F)c1F (stereo not drawn) [Compound 325]
Out: 50

###

Tested on: surinam grass
Test: Test C pre-/postemergence herbicide test
Format: in vivo, Brachiaria decumbens
Conditions: Preemergence, 125 g ai/ha; scale 0 to 100 (0 no effect, 100 complete control)
Response field label takes t when Plant response rating, Surinam Grass is strictly below 80 and f in all other cases.

Sample answers from the record:
| Compound | Classification |
| --- | --- |
| O=C1NCC(c2cc(F)c(F)c(F)c2)C1C(=O)Nc1ccccc1C(F)(F)F (racemic) | f |
| O=C1NCC(c2cccc(Br)c2)C1C(=O)Nc1cccc(F)c1F (centres unmarked) | t |
| O=C1NCC(c2cccc(Br)c2)C1C(=O)Nc1ccccc1F (centres unmarked) | t |
| O=C1NCC(c2ccc(F)cc2)C1C(=O)Nc1ccccc1F (racemic) | f |

Moving on to another compound below.
In: Given O=C1NCC(c2ccccc2)C1C(=O)Nc1ccccc1F (racemic) , is recorded Plant response rating, Surinam Grass strictly lower than 80?
Out: t

###

Item-by-item account of Plant response rating, Morningglory
Test system: morningglory
Experiment: Test C pre-/postemergence herbicide test
Assay type: in vivo, Ipomoea coccinea
Conditions: Postemergence, 31 g ai/ha; scale 0 to 100 (0 no effect, 100 complete control)
# print the numeric value only

Example results:
| Compound | Test result |
| --- | --- |
| CN1CC(c2ccc(C(F)(F)F)cc2)C(C(=O)Nc2ccccc2F)C1=O (stereo not shown) [Compound 304] | 50 |
| O=C1NCC(c2cccc(C(F)(F)F)c2)C1C(=O)Nc1ccc(F)cc1F (racemic) [Compound 207] | 5 |
| O=C1NCC(c2ccc(C(F)(F)F)cc2)C1C(=O)Nc1ccc(F)c(F)c1F (stereo not shown) [Compound 232] | 15 |

# context switch: different compound, same Plant response rating, Morningglory
In: What does the data say about its Plant response rating, Morningglory? Entry: Cc1cccc(NC(=O)C2C(=O)NCC2c2cccc(C(F)(F)F)c2)c1 (stereo not shown) [Compound 317]
Out: 0

###

Tested on: ryegrass, Italian
Assay: Test A pre-/postemergence herbicide test
Assay type: in vivo, Lolium multiflorum
Conditions: preemergence, 500 g ai/ha; 0 to 100 scale
Readout name: Plant response rating, Ryegrass, Italian
Lab note: record the figure alone, no unit after it.

In: Could you share which Plant response rating, Ryegrass, Italian value was measured for COc1cc(C2CNC(=O)C2C(=O)Nc2ccccc2Cl)ccc1F (racemic) [Compound 133] ?
Out: 0

In: Any idea what Plant response rating, Ryegrass, Italian was measured for O=C1NCC(c2cccc(OC(F)(F)C(F)F)c2)C1C(=O)Nc1ccc(F)c(F)c1F (racemic) [Compound 124] ?
Out: 40

In: Which Plant response rating, Ryegrass, Italian value belongs to O=C1NCC(c2cccc(C(F)(F)F)c2)C1C(=O)Nc1nc(C(F)(F)F)co1 (racemic) [Compound 114] ?
Out: 30

In: Look up Plant response rating, Ryegrass, Italian: O=C1NCC(c2cccc(OC(F)(F)C(F)F)c2)C1C(=O)Nc1ccc(F)cc1F (racemic) [Compound 122]
Out: 0

###

Tested on: ragweed
Assay: Test A pre-/postemergence herbicide test
Type: in vivo, Ambrosia elatior
Conditions: Preemergence, 500 g ai/ha; visual rating on 0 to 100 scale (0 no effect, 100 complete control)
Readout name: Ragweed plant response rating
Enter the number alone.

Answered examples (4):
| Molecule | Test result |
| --- | --- |
| O=C1NCC(c2cccc(Oc3ccccc3)c2)C1C(=O)Nc1cccc(F)c1F (centres unmarked) | 0 |
| O=C1NCC(c2cccc(Br)c2)C1C(=O)Nc1ccc(F)cc1F (centres unmarked) | 0 |
| O=C1NCC(c2cccc(I)c2)C1C(=O)Nc1ccccc1C(F)(F)F (centres unmarked) | 0 |
| O=C1NCC(c2ccc(Br)c(Br)c2)C1C(=O)Nc1cccc(F)c1F (centres unmarked) | 0 |

Continue with the molecule presented below.
In: Entry O=C1NCC(c2cccc(C(F)(F)F)c2)C1C(=O)Nc1cccc(Cl)c1F (centres unmarked) has what Ragweed plant response rating?
Out: 30
